Reference source for all entries: the supplement of paper PMC11061612

- Test system: KLE (Endometrial Carcinoma)
- Assay explanation: combination Emax (second highest fraction inhibited in the dose matrix, 72 h); higher = more inhibition; extreme values may be limits of the assay
Listed here are compounds together with their documented combination Emax.
Answer with a number only.

These recorded examples may help you get a feel for the data.
- CC(=O)c1c(C)c2cnc(Nc3ccc(N4CCNCC4)cn3)nc2n(C2CCCC2)c1=O [Palbociclib] + Cn1cnc2c(F)c(Nc3ccc(Br)cc3Cl)c(C(=O)NOCCO)cc21 [Selumetinib] (first compound max 10 µM, 7x7, partner max 10 µM): 0.31
- CN(C)CCCOc1ccc(-c2ccc3ncc4c(c3c2)n(C2CCOCC2)c(=O)n4C)cn1 [AZD0156] + C[C@@H]1COCCN1C2=NC(=NC(=C2)C3(CC3)[S@](=N)(=O)C)C4=C5C=CNC5=NC=C4 [AZD6738] (first compound max 1 µM, 7x7, partner max 10 µM): 0.469
- COc1nnc2ccc(N3CCC(c4ccc(OCCN5CCN(C)C(=O)[C@H]5C)cc4)CC3)nn12 [AZD5153] + Cn1cnc2c(F)c(Nc3ccc(Br)cc3Cl)c(C(=O)NOCCO)cc21 [Selumetinib] (first compound max 1 µM, 7x7, partner max 10 µM): 0.631
- NC1(C(=O)N[C@@H](CCO)c2ccc(Cl)cc2)CCN(c2ncnc3[nH]ccc23)CC1 [Capivasertib] + COc1nnc2ccc(N3CCC(c4ccc(OCCN5CCN(C)C(=O)[C@H]5C)cc4)CC3)nn12 [AZD5153] (first compound max 10 µM, 7x7, partner max 1 µM): 0.639
- CN(C)CCCOc1ccc(-c2ccc3ncc4c(c3c2)n(C2CCOCC2)c(=O)n4C)cn1 [AZD0156] + C=CCn1c(=O)c2cnc(Nc3ccc(N4CCN(C)CC4)cc3)nc2n1-c1cccc(C(C)(C)O)n1 [AZD1775] (first compound max 1 µM, partner max 1 µM): 0.531
- NC1(C(=O)N[C@@H](CCO)c2ccc(Cl)cc2)CCN(c2ncnc3[nH]ccc23)CC1 [Capivasertib] + Cn1cnc2c(F)c(Nc3ccc(Br)cc3Cl)c(C(=O)NOCCO)cc21 [Selumetinib] (first compound max 10 µM, 7x7, partner max 10 µM): 0.484

Let's switch to this compound now.
I have this compound here, CS(=O)(=O)CCNCc1ccc(-c2ccc3ncnc(Nc4ccc(OCc5cccc(F)c5)c(Cl)c4)c3c2)o1 [Lapatinib] + C[C@@H](Oc1cc(-c2cnn(C3CCNCC3)c2)cnc1N)c1c(Cl)ccc(F)c1Cl [Crizotinib] (first compound max 10 µM, 7x7, partner max 10 µM) , and I need its recorded combination Emax.
0.51
